- System: Enterobacter aerogenes
- experimentSummary: Basal salts method, minimum inhibitory concentration against Enterobacter aerogenes
- Format: cell-based
- conditionContext: Klebsiella aerogenes; pH 8.0; at least 80% kill
parameterMeasured: MIC (µg/mL)
Give bare numbers, in µg/mL.

Known MIC results, listed for orientation:
compound | MIC [µg/mL]
O=C1OC(CCl)CN1Br (stereo not shown) [Compound 1, 3-Bromo-5-chloromethyl-2-oxazolidinone] | 10
O=C1OC(CBr)CN1Cl (stereo not shown) [Compound 4, 3-Chloro-5-bromomethyl-2-oxazolidinone] | 20
O=C1OC(CCl)CN1Cl (stereo not shown) [Compound 2, 3-Chloro-5-chloromethyl-2-oxazolidinone] | 10

Would you kindly look at the next entry?
stdin: Answer with the recorded MIC of O=C1OC(CBr)CN1Br (stereo not shown) [Compound 3, 3-Bromo-5-bromomethyl-2-oxazolidinone] only.
stdout: 4
